test system: HEK293; test: maximal inhibition of ZIKV NS1 production (% inhibition); higher = stronger antiviral effect
quantity: maximal inhibition
One number for each entry.

For orientation, consider the following solved cases.
[
  {
    "compound": "CN1CCN(Cc2ccc(NC(=O)Nc3ccc(Oc4cc(NC(=O)C5CC5)ncn4)cc3)cc2C(F)(F)F)CC1",
    "maximal inhibition": 104
  },
  {
    "compound": "O=[N+]([O-])c1ccc(O)c2ncccc12",
    "maximal inhibition": 94
  },
  {
    "compound": "Clc1ccc(CCC(Cn2ccnc2)Sc2c(Cl)cccc2Cl)cc1 (stereo not drawn)",
    "maximal inhibition": 97
  }
]

Take each entry in turn and give its maximal inhibition.
1. CCCCCC[C@H]1C(=O)O[C@H](C)[C@H](NC(=O)c2cccc(NC=O)c2O)C(=O)O[C@@H](C)[C@@H]1OC(=O)CC(C)C
2. C/C=C(\C)C(=O)N[C@@H](c1ccccc1)[C@@H](O)C(=O)O[C@H]1C[C@@]2(O)[C@@H](OC(=O)c3ccccc3)[C@@H]3[C@]4(OC(C)=O)CO[C@@H]4C[C@H](O)[C@@]3(C)C(=O)[C@H](OC(C)=O)C(=C1C)C2(C)C
3. COCC[n+]1c2c(n(Cc3cnccn3)c1C)C(=O)c1ccccc1C2=O
4. CC(C)c1nn(-c2c(Cl)cccc2Cl)c2nc(Cc3ccc(OCCO)cc3)[nH]c(=O)c12
5. CCOC(=O)C1=C(C)NC(=S)NC1c1cccc(O)c1 (stereo not drawn)

Out:
[94, 67, 104, 91, 89]
